- System: CCRF-CEM
- assayNotes: Induction of apoptosis in human CCRF-CEM cells assessed as accumulation of Bid protein expression at 1 to 5 times IC50 incubated for 24 hrs by Western blot analysis
- Format: functional, cell-based
Activity calls are given as the source filed them. The rule behind the calls is not given here.

molecule: C=C(C)[C@@H]1CC[C@]2(C(=O)OCc3oc(=O)oc3C)CC[C@]3(C)[C@H](CC[C@@H]4[C@@]5(C)CC[C@H](O)C(C)(C)[C@@H]5CC[C@]43C)[C@@H]12
subjectOfTest: CCRF-CEM
Activity: Active
--
molecule: C=C(C=O)[C@@H]1CC[C@]2(C(=O)OCc3cn([C@H]4O[C@H](CO)[C@@H](O)[C@H](O)[C@H]4O)nn3)CC[C@]3(C)[C@H](CC[C@@H]4[C@@]5(C)Cc6nccnc6C(C)(C)[C@@H]5CC[C@]43C)[C@@H]12 (stereo in doubt)
subjectOfTest: CCRF-CEM
Activity: Active

----------
- assayNotes: Cytotoxicity against human BJ cells assessed as reduction in cell viability incubated for 72 hrs by MTS assay
- Assay type: toxicity, cell-based
resultType: IC50 at 72 h

Consider the reported IC50 at 72 h for these compounds:
compound: C#CCOC(=O)[C@]12CC[C@@H](C(=C)C=O)[C@@H]1[C@H]1CC[C@@H]3[C@@]4(C)Cc5nccnc5C(C)(C)[C@@H]4CC[C@@]3(C)[C@]1(C)CC2
result: 7.2 µM
//
compound: CC(C)[C@@H]1CC[C@]2(C(=O)O)CC[C@]3(C)[C@H](CC[C@@H]4[C@@]5(C)CCC(=O)C(C)(C)[C@@H]5CC[C@]43C)[C@@H]12 [DIHYDROBETULONIC ACID]
result: > 50 µM
//
compound: C[C@H]1[C@H](C)CC[C@]2(C(=O)O)CC[C@]3(C)C(=CC[C@@H]4[C@@]5(C)Cc6cccnc6C(C)(C)[C@@H]5CC[C@]43C)[C@H]12
result: > 50 µM
//
compound: C=C(C=O)[C@@H]1CC[C@]2(C(=O)OCc3cn([C@H]4O[C@H](COC(C)=O)[C@@H](OC(C)=O)[C@H](OC(C)=O)[C@H]4OC(C)=O)nn3)CC[C@]3(C)[C@H](CC[C@@H]4[C@@]5(C)CC[C@H](O)C(C)(C)[C@@H]5CC[C@]43C)[C@@H]12
result: 1.8 µM

Next up:
Return value of IC50 at 72 h for input CC1(C)CC[C@]2(C(=O)O)CC[C@]3(C)C(=CC[C@@H]4[C@@]5(C)Cc6nccnc6C(C)(C)[C@@H]5CC[C@]43C)[C@@H]2C1 , no commentary.
> 50 µM

----------
- assayNotes: Stability in human plasma assessed as compound remaining at 2 uM measured at 15 mins by RF-MS analysis
- Format: ADME, cell-free
- conditionInfo: read-out: Stability
resultType: remaining at 0.25 h, 2 µM (%)
Answer format: numeric, % implied, no suffix.

molecule: C=C(C=O)[C@@H]1CC[C@]2(C(=O)OCc3cn([C@H]4O[C@H](COC(C)=O)[C@@H](OC(C)=O)[C@H](OC(C)=O)[C@H]4OC(C)=O)nn3)CC[C@]3(C)[C@H](CC[C@@H]4[C@@]5(C)Cc6nccnc6C(C)(C)[C@@H]5CC[C@]43C)[C@@H]12 (stereo in doubt)
unitLabel: %
remaining at 0.25 h, 2 µM: 104

molecule: C=C(C)[C@@H]1CC[C@]2(C(=O)OCc3cn([C@H]4O[C@H](COC(C)=O)[C@@H](OC(C)=O)[C@H](OC(C)=O)[C@H]4OC(C)=O)nn3)CC[C@]3(C)[C@H](CC[C@@H]4[C@@]5(C)Cc6nccnc6C(C)(C)[C@@H]5CC[C@]43C)[C@@H]12 (stereo in doubt)
unitLabel: %
remaining at 0.25 h, 2 µM: 98.7

molecule: C=C(C=O)[C@@H]1CC[C@]2(C(=O)OCc3cn([C@H]4O[C@H](COC(C)=O)[C@@H](OC(C)=O)[C@H](OC(C)=O)[C@H]4OC(C)=O)nn3)CC[C@]3(C)[C@H](CC[C@@H]4[C@@]5(C)CC[C@H](O)C(C)(C)[C@@H]5CC[C@]43C)[C@@H]12
unitLabel: %
remaining at 0.25 h, 2 µM: 93.9

Turning now to a further molecule:
State its remaining at 0.25 h, 2 µM for this molecule: C=C(C)[C@@H]1CC[C@]2(C(=O)OCc3cn([C@H]4O[C@H](COC(C)=O)[C@@H](OC(C)=O)[C@H](OC(C)=O)[C@H]4OC(C)=O)nn3)CC[C@]3(C)[C@H](CC[C@@H]4[C@@]5(C)CC[C@H](O)C(C)(C)[C@@H]5CC[C@]43C)[C@@H]12
94.3
